target: Integrin alpha-V/beta-8 (Homo sapiens, UniProt P06756+P26012)
Sequence (P06756 31-889 limits assumed): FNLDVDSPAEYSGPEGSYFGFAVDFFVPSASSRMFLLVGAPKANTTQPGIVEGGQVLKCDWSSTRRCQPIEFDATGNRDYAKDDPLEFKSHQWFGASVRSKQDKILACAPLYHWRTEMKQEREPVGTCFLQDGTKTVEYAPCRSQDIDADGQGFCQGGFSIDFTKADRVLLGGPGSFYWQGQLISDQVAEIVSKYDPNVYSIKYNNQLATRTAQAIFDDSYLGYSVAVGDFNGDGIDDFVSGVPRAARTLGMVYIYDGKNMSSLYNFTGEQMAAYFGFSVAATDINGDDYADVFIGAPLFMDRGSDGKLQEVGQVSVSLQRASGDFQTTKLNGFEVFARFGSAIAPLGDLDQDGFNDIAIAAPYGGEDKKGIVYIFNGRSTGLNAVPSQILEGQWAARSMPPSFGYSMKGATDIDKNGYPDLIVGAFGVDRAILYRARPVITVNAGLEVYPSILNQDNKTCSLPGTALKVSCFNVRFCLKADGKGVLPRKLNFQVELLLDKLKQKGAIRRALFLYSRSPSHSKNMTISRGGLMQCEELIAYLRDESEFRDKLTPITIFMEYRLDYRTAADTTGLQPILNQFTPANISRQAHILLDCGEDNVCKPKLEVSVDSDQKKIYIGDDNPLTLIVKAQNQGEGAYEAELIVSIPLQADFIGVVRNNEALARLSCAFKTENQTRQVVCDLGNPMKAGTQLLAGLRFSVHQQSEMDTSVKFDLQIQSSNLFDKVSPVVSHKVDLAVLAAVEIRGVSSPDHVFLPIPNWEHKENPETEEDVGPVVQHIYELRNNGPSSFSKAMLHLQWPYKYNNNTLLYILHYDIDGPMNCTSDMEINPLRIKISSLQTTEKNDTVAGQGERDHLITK
Sequence (P06756 891-1048 limits assumed): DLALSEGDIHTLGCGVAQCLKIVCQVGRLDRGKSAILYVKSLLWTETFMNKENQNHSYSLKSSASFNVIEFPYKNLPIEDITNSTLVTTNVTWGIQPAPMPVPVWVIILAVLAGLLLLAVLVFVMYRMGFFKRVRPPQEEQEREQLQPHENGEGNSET
Sequence (P26012 43-769 limits assumed): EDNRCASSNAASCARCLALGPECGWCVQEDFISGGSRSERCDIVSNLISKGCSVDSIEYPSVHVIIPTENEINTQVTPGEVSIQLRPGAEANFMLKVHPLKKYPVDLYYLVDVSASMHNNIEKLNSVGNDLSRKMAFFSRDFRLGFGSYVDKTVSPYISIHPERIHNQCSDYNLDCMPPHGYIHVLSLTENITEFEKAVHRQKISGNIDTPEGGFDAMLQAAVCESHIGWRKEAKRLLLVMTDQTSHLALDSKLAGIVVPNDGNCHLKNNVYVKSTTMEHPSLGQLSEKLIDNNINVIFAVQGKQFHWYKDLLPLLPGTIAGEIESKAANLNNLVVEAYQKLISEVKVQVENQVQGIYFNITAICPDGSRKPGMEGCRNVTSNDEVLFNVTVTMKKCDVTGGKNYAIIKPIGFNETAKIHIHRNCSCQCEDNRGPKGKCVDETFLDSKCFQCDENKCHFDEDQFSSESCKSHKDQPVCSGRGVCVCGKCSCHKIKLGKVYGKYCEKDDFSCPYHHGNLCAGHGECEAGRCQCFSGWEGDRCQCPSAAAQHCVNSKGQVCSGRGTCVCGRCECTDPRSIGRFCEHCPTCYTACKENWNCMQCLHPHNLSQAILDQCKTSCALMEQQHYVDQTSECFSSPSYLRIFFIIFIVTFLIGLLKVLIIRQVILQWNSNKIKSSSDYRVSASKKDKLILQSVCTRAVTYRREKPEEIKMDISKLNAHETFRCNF
method_notes: Inhibition of integrin alphavbeta8 (unknown origin)-mediated K562 cell adhesion to LAPb1 coated surface by fluorescence analysis
readout_label: IC50 (µM)

(1) CS(=O)(=O)c1ccc(C(CC(=O)O)NC(=O)CCCCc2ccc3c(n2)NCCC3)cc1 (racemic)
(2) O=C(O)CC(NC(=O)CCCCc1ccc2c(n1)NCCC2)c1ccc2c(c1)CCC2 (racemic)
IN: Sorting by IC50 in descending order, would 1 or 2 appear first? Use the label to indicate which entry you chose.
OUT: 1
(1: 0.794 µM, 2: 0.398 µM)

(A) N#Cc1cccc(C(CC(=O)O)NC(=O)CCCCc2ccc3c(n2)NCCC3)c1 (racemic)
(B) O=C(O)CC(NC(=O)CCCCc1ccc2c(n1)NCCC2)c1cc(Cl)cc(Cl)c1 (single isomer, unassigned; enantiomer 2)
(C) Cc1cc(C)cc(C(CC(=O)O)NC(=O)CCCCc2ccc3c(n2)NCCC3)c1 (racemic)
IN: Rank by IC50 (largest to smallest). Write the labels out in the order the request specifies.
OUT: A, C, B
(A: 1 µM, C: 0.631 µM, B: 0.1 µM)

(I) O=C(O)CC(NC(=O)CCCCc1ccc2c(n1)NCCC2)c1cccc(OC(F)(F)F)c1 (racemic)
(II) O=C(O)C[C@H](NC(=O)CCCCc1ccc2c(n1)NCCC2)c1cccc(C(F)(F)F)c1
IN: Form: Entry with minimum IC50 (choose one): I / II Use the label to indicate which entry you chose.
OUT: II

(P) O=C(O)CC(NC(=O)CCCCc1ccc2c(n1)NCCC2)c1ccccc1 (racemic)
(Q) O=C(O)CC(NC(=O)CCCCc1ccc2c(n1)NCCC2)c1ccccc1F (racemic)
IN: Form: Entry with minimum IC50 (choose one): P / Q Use the label to indicate which entry you chose.
OUT: P
(P: 0.794 µM, Q: 3.98 µM)
